Values from patent US12281098B2

Readings of IC50 for the listed molecules
tested-target: IRAK4 kinase (Homo sapiens, UniProt Q9NWZ3)
Construct: purchased Carna 09-145
Sequence (Q9NWZ3 whole entry): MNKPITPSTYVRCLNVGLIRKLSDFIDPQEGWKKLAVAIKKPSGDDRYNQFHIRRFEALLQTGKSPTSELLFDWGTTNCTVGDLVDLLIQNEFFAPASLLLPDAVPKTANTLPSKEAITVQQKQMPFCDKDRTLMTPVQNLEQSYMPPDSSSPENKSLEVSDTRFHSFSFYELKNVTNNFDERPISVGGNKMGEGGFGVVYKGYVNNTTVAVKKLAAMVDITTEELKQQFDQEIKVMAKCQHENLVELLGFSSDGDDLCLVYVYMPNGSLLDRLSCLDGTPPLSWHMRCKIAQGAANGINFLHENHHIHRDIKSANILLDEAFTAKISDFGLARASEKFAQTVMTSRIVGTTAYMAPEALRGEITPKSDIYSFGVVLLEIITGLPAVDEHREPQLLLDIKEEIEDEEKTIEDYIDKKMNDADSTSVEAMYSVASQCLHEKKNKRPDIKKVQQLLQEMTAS
method-notes: Compound inhibition of IRAK4 kinase activity (fluorescence microfluidic mobility shift assay)
Type: biochemical
conditions-used: Table 2; 10 μM ATP, 6 nM IRAK4 kinase

Solved cases (2 shown):
IC50 reported for this molecule COc1cc2nn(CCN3CCN(CC(=O)N4CCC5(CCC(C(=O)N[C@H](C(=O)N6C[C@H](O)C[C@H]6C(=O)N[C@@H](C)c6ccc(-c7scnc7C)cc6)C(C)(C)C)CC5)CC4)[C@H](C)C3)cc2cc1NC(=O)c1cccc(C(F)(F)F)n1 [III-48] : < 100 nM

IC50 reported for this molecule COc1cc2nn(CCN3CCN(CC(=O)N4CCC5(CC4)CCN(c4cccc6c4C(=O)N(C4CCC(=O)NC4=O)C6=O)CC5)[C@@H](C)C3)cc2cc1NC(=O)c1cccc(C(F)(F)F)n1 (stereo partly drawn) [III-46] : < 100 nM

Switching to the query record.
IC50 reported for this molecule COc1cc2nn(CCN3CCN(CC(=O)N4CCC5(CCC(N[C@H](C(=O)N6C[C@H](O)C[C@H]6C(=O)N[C@@H](C)c6ccc(-c7scnc7C)cc6)C(C)(C)C)CC5)CC4)C3=O)cc2cc1NC(=O)c1cccc(C(F)(F)F)n1 [III-35] : < 100 nM
